protocol.details: Induction of anti-CD3 antibodies-stimulated human exhausted CD8+ T cell activation assessed fold increase in CTLA4 expression measured by flow cytometry analysis; also: reference of the scale not given here
Format: functional, T cell line
measure: fold change (FC)

>>> result("Cn1cnnc1C(F)(F)C(C)(F)c1cccc(N2Cc3c(cc(CN4CC[C@@H](F)C4)cc3C(F)(F)F)C2=O)c1 (single isomer, unassigned)")
">1.61"
>>> result("Cn1cnnc1C(F)(F)[C@](C)(F)c1cccc(N2Cc3c(cc(C(=O)N4CC[C@H](O)C4)cc3C(F)(F)F)C2=O)c1")
"<=1.4"
>>> result("Cn1cnnc1CC1(c2cccc(NC(=O)c3cc(CN4CCC5(CC5)C4)cc(C4CC4)n3)c2)COC1")
">1.61"
>>> result("C[C@H](Cc1nncn1C)c1cccc(NC(=O)c2cccc(CCO)n2)c1")
"<=1.4"
>>> result("Cn1cnnc1[C@@H]1C[C@@H]1c1cccc(N2Cc3c(cccc3C(F)(F)F)C2=O)c1")
"<=1.4"
>>> result("C[C@H](Cc1nncn1C)c1cccc(NC(=O)c2n[nH]c3c2CCC3)c1")
"<=1.4"
>>> result("Cn1cnnc1CC1(c2cccc(N3Cc4c(cc(CN5CC[C@H](C#N)C5)cc4C(F)(F)F)C3=O)c2)COC1")
">1.61"
>>> result("C[C@H](Cc1nncn1C)c1cccc(N2Cc3c(cccc3C(F)(F)F)C2=O)c1.Cl")
1.41
>>> result("Cn1cnnc1CC1(c2cccc(NC(=O)c3nc4c(C(F)(F)F)cccc4[nH]3)c2)COC1")
">1.61"

* * *

Collected fold change (FC) values appear next to each entry.
protocol.details: Induction of anti-CD3 antibodies-stimulated human T cell activation at 1 uM assessed fold increase in CD25 expression measured by ELISA assay; also: reference of the scale not given here
Format: functional, T cell line
measure: fold change (FC)

>>> numeric_value("Cn1cnnc1[C@H](F)[C@@](C)(F)c1cccc(N2Cc3c(cc(C4CC4)cc3C(F)(F)F)C2=O)c1 (single isomer, unassigned; 483)")
0.601
>>> numeric_value("C[C@H](Cc1nocc1C(F)(F)F)c1cccc(N2Cc3c(cc(C(=O)N4CC[C@H](O)C4)cc3C(F)(F)F)C2=O)c1")
0.601
>>> numeric_value("Cn1cnnc1CC1(c2cccc(N3Cc4c(cc(CN5CC(C(=O)O)C5)cc4C(F)(F)F)C3=O)c2)COC1")
0.801
>>> numeric_value("C[C@@H](Cc1nncn1C)c1cccc(NC(=O)c2cc(C3CC3)cc(C(F)(F)F)n2)c1")
0.601

* * *

protocol.details: Induction of allogenic human T cell activation at 10 uM assessed fold increase in cell proliferation
Type: functional, T cell line
measure: fold change (FC)

>>> result("C[C@H](Sc1nncn1C)c1cccc(NC(=O)c2cccc(C(F)(F)F)n2)c1")
"<=2"
>>> result("Cn1cnnc1CC1(c2cccc(N3Cc4c(cc(CN5CCC6(CC6)C5)cc4C(F)(F)F)C3=O)c2)COC1")
">3"
>>> result("Cc1cc(C(=O)Nc2cccc([C@H](C)Cc3nncn3C)c2)nc(C2CC2)n1")
2.01
>>> result("C[C@@H](c1cc2c(c(C(F)(F)F)c1)CN(c1cccc(C3(Cc4nncn4C)COC3)c1)C2=O)N1CC[C@H](F)C1")
">3"
>>> result("Cc1cc2c(c(C3CC3)n1)CN(c1cccc([C@H](C)Cc3nncn3C)c1)C2=O")
"<=2"

* * *

protocol.details: Induction of anti-CD3 antibodies-stimulated human T cell activation at 8 uM assessed fold increase in IL-2 secretion measured by ELISA assay; also: reference of the scale not given here
Format: functional, T cell line
measure: fold change (FC)

>>> result("C[C@H](Cc1nncn1C)c1cccc(N2Cc3c(cc([C@H](C)N4CC[C@H](F)C4)cc3C(F)(F)F)C2=O)c1")
">=0.201"
>>> result("Cc1c[nH]nc1C[C@H](C)c1cccc(N2Cc3c(cccc3C(F)(F)F)C2=O)c1 (single isomer, unassigned)")
0.151
>>> result("Cc1cc(C(=O)Nc2cccc(C3(Cc4nncn4C)COC3)c2)nc(C2CC2)n1")
">=0.201"
>>> result("C[C@H](Cc1nncn1C)c1cccc(NC(=O)c2nc(C(F)(F)F)c[nH]2)c1")
">=0.201"
>>> result("C[C@H](Cc1nncn1C)c1cccc(N2Cc3c(cc([C@@H](C)N4CC(O)C4)cc3C(F)(F)F)C2=O)c1")
">=0.201"
>>> result("C[C@H](Cc1nncn1C)c1cccc(NC(=O)c2[nH]nc3c2CCCC3)c1")
0.051

* * *

protocol.details: Induction of anti-CD3 antibodies-stimulated human CD8+ T cell activation in immunocompetent mouse assessed fold increase in CD25 expression at 90 mg/kg, po administered twice a day; also: reference of the scale not given here
Assay type: functional
measure: fold change (FC)

>>> result("Cn1cnnc1CC1(c2cccc(NC(=O)c3cc(CN4CC[C@H](F)C4)cc(C4CC4)n3)c2)COC1")
1
>>> result("Cn1cnnc1C(F)(F)[C@](C)(F)c1cccc(N2Cc3c(cc(CN4CCC(F)(F)C4)cc3C(F)(F)F)C2=O)c1")
"<1"
>>> result("Cn1cnnc1CC1(c2cccc(N3Cc4c(cc(CN5CCC(F)CC5)cc4C(F)(F)F)C3=O)c2)COC1")
1
>>> result("Cn1cnnc1CC1(c2cccc(N3Cc4c(cc(CN5CCC6(CC6)C5)cc4C(F)(F)F)C3=O)c2)COC1")
1
>>> result("Cn1cnnc1CC1(c2cccc(N3Cc4c(cc(CN5CCC[C@H](F)C5)cc4C(F)(F)F)C3=O)c2)COC1")
1
>>> result("C[C@H](Cc1nncn1C)c1cccc(N2Cc3c(cccc3C(F)(F)F)C2=O)c1.Cl")
"<1"
>>> result("Cn1cnnc1[C@@H](F)C1(c2cccc(N3Cc4c(cc(CN5CCC(F)CC5)cc4C(F)(F)F)C3=O)c2)COC1")
1

* * *

protocol.details: Induction of anti-CD3 antibodies-stimulated human T cell activation at 1 uM assessed fold increase in CD25 expression measured by ELISA assay; also: reference of the scale not given here
Assay type: functional, T cell line
measure: fold change (FC)

>>> result("Cn1cnnc1CC1(c2cccc(N3Cc4c(cc(CN5CC6CC6(C)C5)cc4C(F)(F)F)C3=O)c2)COC1 (stereo not drawn)")
">=1.001"
>>> result("CN1CC2CC1CN2c1cc2c(c(C(F)(F)F)c1)CN(c1cccc([C@@](C)(F)C(F)(F)c3nncn3C)c1)C2=O (single isomer, unassigned; 563)")
0.801
>>> result("Cn1cnnc1[C@H](F)C1(c2cccc(N3Cc4c(cc(CN5C6CCCC5CC6)cc4C(F)(F)F)C3=O)c2)COC1 (stereo in doubt; 671b)")
">=1.001"
>>> result("C[C@H]1CN(Cc2cc3c(c(C(F)(F)F)c2)CN(c2cccc(C4(Cc5nncn5C)COC4)c2)C3=O)CCO1")
0.601
>>> result("CCOc1cc([C@H](C)Cc2nncn2C)cc(N2Cc3c(cccc3C(F)(F)F)C2=O)n1")
">=1.001"
>>> result("C[C@H](Cc1nncn1C)c1cccc(NC(=O)c2n[nH]c3c2CCC3)c1")
0.601
>>> result("C[C@H](Cc1nncn1C)c1cccc(N2Cc3c(cc(C4CC4)nc3C3CC3)C2=O)c1")
0.601
>>> result("Cc1[nH]ncc1-c1cc2c(c(C(F)(F)F)c1)CN(c1cccc([C@H](C)Cc3nncn3C)c1)C2=O")
0.801

* * *

protocol.details: Induction of anti-CD3/CD28 antibodies-stimulated human T cell activation at 1 uM assessed fold increase in CD25 expression measured by ELISA assay
Format: functional, T cell line
measure: fold change (FC)

>>> numeric_value("C[C@H](Cc1nncn1C)c1cccc(NC(=O)c2ccnc(C3CC3)n2)c1")
1.31
>>> numeric_value("Cc1cc(C(=O)Nc2cccc(C3(Cc4nncn4C)COC3)c2)nc(C(F)(F)F)n1")
1.01
>>> numeric_value("CC[C@H](c1cc2c(c(C(F)(F)F)c1)CN(c1cccc(C3(Cc4nncn4C)COC3)c1)C2=O)N1CC[C@H](F)C1")
1.51
>>> numeric_value("C[C@H](Cc1nncn1C)c1cccc(N2Cc3c(cc(C(=O)N4CC[C@H](O)C4)cc3C(F)(F)F)C2=O)c1")
1.01
>>> numeric_value("Cc1cccc2nc(C(=O)Nc3cccc([C@H](C)Sc4nncn4C)c3)ccc12")
1.01
>>> numeric_value("C[C@H](Sc1nncn1C)c1cccc(NC(=O)c2cc(C(=O)N3CC[C@H](O)C3)ccn2)c1")
1.01
>>> numeric_value("Cn1cnnc1CC1(c2cccc(NC(=O)c3cc(Cn4ccnn4)nc(C4CC4)n3)c2)COC1")
1.31
>>> numeric_value("C[C@H](Cc1nncn1C)c1cc(N[C@@H](C)CO)nc(N2Cc3c(cccc3C(F)(F)F)C2=O)c1")
1.01
>>> numeric_value("C[C@H](Sc1nncn1C)c1cccc(NC(=O)c2cc(C(=O)N3C[C@H](O)C[C@@H]3C)ccn2)c1")
1.01
>>> numeric_value("C[C@H](Cc1nncn1C)c1cccc(N2Cc3c(cc(C(=O)N4CC[C@H](O)C4)cc3C3CC3)C2=O)c1")
1.01
>>> numeric_value("Cn1cnnc1CC1(c2cccc(N3Cc4c(cc(CN5CCC6(CC6)C5)cc4C(F)(F)F)C3=O)c2)CCC1")
1.31
>>> numeric_value("C[C@H](Cc1nncn1C)c1cccc(N2Cc3c(cc(CN4CC[C@](C)(O)C4)cc3C(F)(F)F)C2=O)c1")
1.31
>>> numeric_value("C[C@H](Cc1nncn1C)c1cccc(N2Cc3c(cc(N[C@H]4CCNC4)cc3C(F)(F)F)C2=O)c1")
1.01
>>> numeric_value("C[C@@H](c1cc2c(c(C(F)(F)F)c1)CN(c1cccc(C3(C(F)(F)c4nncn4C)COC3)c1)C2=O)N1CC[C@H](F)C1")
1.51
>>> numeric_value("Cn1cnnc1CC1(c2cccc(N3Cc4c(cc(CN5CCCc6c5cnn6C)cc4C(F)(F)F)C3=O)c2)COC1")
1.01
